All values here come from the supplement of paper PMC10567573.

B1: ZBED3 (parent)
chain: GPGFHAGTSALWRHLRSAHRRELE

Variants of: B1
Experiment: protein stability index of a GFP-peptide fusion (GPS, HEK-293T) (PSI 1-6); higher = more stable;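 note: lentivirally expressed fusions sorted by FACS into six bins by GFP to DsRed ratio, PSI derived from sequencing read proportions per bin multiplied by bin number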
Conditions: c terminus: a fixed tail appended
Measured Property: protein stability index
Returns: the value as a bare number; no unit string appended.

These recorded examples may help you get a feel for the data.
>>> df
   sequence_variant  quantitative_result
0              L15S                 2.21
1               F4P                 3.59
2               P2M                 2.53
3               G3C                 3.23
4              L11R                 3.19

Please find the next variant below.
[Q] If you can, please state the reported protein stability index value of L23F .
[A] 2.11
